These measurements were taken from patent US20190153103A1.

Biological target: T1, hBMPR1B-Fc (human BMPR1B extracellular domain, residues K14 to R126, fused to human IgG2 Fc) (human, UniProt O00238 14-126)
T1 construct: also called BMPR1B fused to human Fc fragment; not shown: human IgG2 Fc protein
T1 sequence: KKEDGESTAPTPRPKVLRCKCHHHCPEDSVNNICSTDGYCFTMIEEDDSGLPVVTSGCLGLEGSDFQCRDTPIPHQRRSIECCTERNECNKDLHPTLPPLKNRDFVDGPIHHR
Test: ELISA
For each entry below, report its ELISA value.
Give only the figure.

# query: ELISA of entry SC91.3 (murine anti-BMPR1B antibody) (antibody, V domains shown, Murine hybridoma antibody) VH: QVQLQQPGAELVKPGASVKLSCKASGYTFTSYWMQWVKQRPGQGLEWIGEIDPSDSYTLYNQKFKGKATLTVDTSSSTAYMQLSSLTSEDSAVYFCARFGYYIEYWGQGTTLTVSS VL: DVVMTQTPLSLPVSLGDQASISCRSSQSLVHSTGNTYLHWYLQKPGQSPKLLIYKVSNRFSGVPDRFSGSGSGTDFTLKISRVEAEDLGVYFCSQSTHVPFTFGSGTKLEIK
0.423

# query: ELISA of entry SC91.1 (murine anti-BMPR1B antibody) (antibody, V domains shown, Murine hybridoma antibody with a kappa light chain) VH: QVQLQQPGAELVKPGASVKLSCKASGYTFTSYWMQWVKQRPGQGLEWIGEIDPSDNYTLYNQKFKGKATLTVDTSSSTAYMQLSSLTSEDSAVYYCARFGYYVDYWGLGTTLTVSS VL: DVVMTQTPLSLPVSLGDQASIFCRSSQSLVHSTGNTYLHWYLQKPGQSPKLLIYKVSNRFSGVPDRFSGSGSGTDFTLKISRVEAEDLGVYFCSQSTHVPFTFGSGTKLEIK
0.483
